Taken from patent US20190202912A1.

target_or_test_system: T1, S15-extra cellular domain (ECD) monomer (human, UniProt Q6ZMC9 20-263)
T1 construct: also called S15 monomer protein
T1 sequence: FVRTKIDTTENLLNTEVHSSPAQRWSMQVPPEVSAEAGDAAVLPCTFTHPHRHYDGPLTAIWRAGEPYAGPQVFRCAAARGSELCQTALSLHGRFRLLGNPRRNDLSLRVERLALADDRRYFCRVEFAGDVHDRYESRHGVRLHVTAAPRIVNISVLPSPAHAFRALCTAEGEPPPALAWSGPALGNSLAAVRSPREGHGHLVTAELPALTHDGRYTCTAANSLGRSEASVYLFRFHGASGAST
measurement_protocol: BLI (Octet RED96), mAb on anti-human Fc sensors, S15-ECD monomer in solution, global fit
Measured kon, listed per entry.
Could you give the number and then its unit, please?

See these solved cases before continuing.
>>> experimental_result("1C12 (antibody, V domains shown, Mouse anti-human Siglec-15 mAb) VH: EVQLVESGGGLVKPGGSLKLSCAASGFSFSDYGMHWVRQAPEKGLEWVAYISSGSSILYYADIVKGRFTISRDNAKNTLFLQMTSLRSEDTAMYYCARDHYHGNGSDYWGQGTTLTVSS VL: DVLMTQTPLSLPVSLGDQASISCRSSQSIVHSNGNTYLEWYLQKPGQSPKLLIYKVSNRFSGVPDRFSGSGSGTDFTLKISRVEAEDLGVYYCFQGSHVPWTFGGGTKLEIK")
"105000 M⁻¹ s⁻¹"
>>> experimental_result("80A (antibody, V domains shown, Mouse anti-human Siglec-15 mAb; also called NC80) VH: QVQLKQSGAELVRPGASVKLSCRASGYTFTDFYINWVKQRPGQGLEWIARIYPGSDETYYNEKFKDKVTLTAEKSSSTAYMQLSSLTSEDSAVYFCALWFFDVWGTGTTVTVSS VL: DIVMTQSPSSLTVTAGEKVTMSCKSNQSLLNSGDQKNYLTWYQQKPGQPPKLLIYWASTRESGVPDRFTGSGSGTDFTLTISSVQAEDLAIYYCQNDYSYPLTFGAGTKLELK")
"348000 M⁻¹ s⁻¹"

Please turn your attention to the following entry.
Please look up its kon: 1H3 (antibody, V domains shown, Mouse anti-human Siglec-15 mAb) VH: QVQLKESGPGLVAPSQSLSITCTVSGFSLSNYGVHWVRQPPGKGLEWLVLIWSDGSTTYNSALKSRLSISKDNSKSQVFLKMNSLQTGDTAMYYCARHPYDDYSGYYYTMDYWGQGTSVTVSS VL: DIQMTQASSSLSVSLGGRVTITCKASDHINNWLAWYQQKPGNAPRLLISGATSLETGVPSRFSGSGSGKDYTLSITSLQTEDVATYYCQQYWSSPLTFGAGTKLELK
359000 M⁻¹ s⁻¹
